Test system: Sprague-Dawley rats
Conditions: alone; 5 ml/kg, observation 10 days
observation-type: LD50 oral, alone

For record CCC(c1ccccc1)c1c(O)c2ccccc2oc1=O (stereo not shown) [Component 1.1, reference compound] the listed LD50 oral, alone is 3.0 mg/kg of body weight

---

The compounds listed here are annotated with their LD100 (interpolated).
System: Sprague-Dawley rats
Assay: animal or person
Assay type: in vivo
Settings: component (b) with 2 mg/kg 4-hydroxy-2-oxo-3-(1-phenylpropyl)-2H-chromene, single oral dose, 10 days

Here are 6 compounds together with their reported answers.
{"columns": ["compound", "measurement-target", "recorded-result"],
 "data": [
  ["O=C(O)Cc1c(-c2cccs2)nn(-c2ccc(Cl)cc2)c1-c1cccs1 [D]", "Sprague-Dawley rats", "5.0 mg/kg"],
  ["O=C(O)Cc1c(-c2ccc(Cl)cc2)nn(-c2ccccc2)c1-c1ccccc1 [B]", "Sprague-Dawley rats", "1.5 mg/kg"],
  ["O=C(O)Cc1c(-c2cccs2)nn(-c2ccccc2Cl)c1-c1cccs1 [M]", "Sprague-Dawley rats", "10 to 50 mg/kg"],
  ["COc1ccc(-n2nc(-c3ccccc3)c(CC(=O)O)c2-c2ccccc2)cc1 [H]", "Sprague-Dawley rats", "~ 10.00 mg/kg"],
  ["O=C(O)Cc1c(-c2ccco2)nn(-c2ccccc2)c1-c1ccco1 [O]", "Sprague-Dawley rats", "~ 50 mg/kg"],
  ["O=C(O)Cc1c(-c2cccs2)nn(-c2ccccc2)c1-c1cccs1 [A]", "Sprague-Dawley rats", "~ 2.0 mg/kg"]
]}

Sprague-Dawley rats data for O=C(O)Cc1c(C2CCCCC2)nn(-c2ccccc2)c1-c1ccccc1 [F] ; its LD100 (interpolated): 7.5 mg/kg

Sprague-Dawley rats data for O=C(O)Cc1c(-c2ccccc2)nn(-c2ccccc2)c1-c1ccccc1 [C, 1,3,5-triphenyl-4-pyrazole acetic acid] ; its LD100 (interpolated): 3.0 mg/kg

Sprague-Dawley rats data for CC(C(=O)O)c1ccc(C2CCCCC2)c(Cl)c1 (single isomer, unassigned) [N] ; its LD100 (interpolated): 5 to 10 mg/kg

---

Tested on: Sprague-Dawley rats
Assay: LD5 determination / hemorrhagic stomach and gut lesions after single oral dose
Details: single oral dose, Sprague-Dawley rats, empty stomach
The compounds listed here are annotated with their LD5.

Here are 4 compounds together with their reported answers.
{"columns": ["compound", "LD5"],
 "data": [
  ["CC(C(=O)O)c1ccc(C2CCCCC2)c(Cl)c1 (single isomer, unassigned)", "< 15 mg/kg of body weight"],
  ["O=C(O)Cc1c(-c2cccs2)nn(-c2ccccc2)c1-c1cccs1", "< 5 mg/kg of body weight"],
  ["CN1C(O)=C(C(=O)Nc2ccc([N+](=O)[O-])cc2)c2ccccc2S1(=O)=O", "< 50 mg/kg of body weight"],
  ["CN1C(C(=O)Nc2nccs2)=C(O)c2ccccc2S1(=O)=O", "< 50 mg/kg of body weight"]
]}

For record O=C(O)Cc1c(-c2cccs2)nn(-c2ccccc2Cl)c1-c1cccs1 the listed LD5 is < 15 mg/kg of body weight

---

System: Sprague-Dawley rats
Assay: animal or person
Type: in vivo
Conditions: component (b) with 2 mg/kg 4-hydroxy-2-oxo-3-(1-phenylpropyl)-2H-chromene, single oral dose, 10 days
Source text: Note the number of animals which die within 10 days of the respective administrations.
observation-type: LD100 (interpolated)

Here are 2 molecules together with their reported answers.
{"columns": ["molecule", "LD100 (interpolated)"],
 "data": [
  ["COc1ccc2c(c1)c(CC(=O)O)c(C)n2C(=O)c1ccc(Cl)cc1 [E, reference compound]", "7.5 mg/kg"],
  ["CN1C(C(=O)Nc2nccs2)=C(O)c2ccccc2S1(=O)=O", "≤ 20.00 mg/kg"]
]}

Turning now to a further molecule:
For record COc1ccc(-c2c(CC(=O)O)c(-c3ccccc3)nn2-c2ccccc2)cc1 the listed LD100 (interpolated) is ~ 10.0 mg/kg
